Where these numbers come from: patent US20250215104A1

target: T1, human soluble urokinase plasminogen activator receptor (suPAR) (human, UniProt Q03405 23-303, limits assumed); assay: dissociation rate (kdis) on human suPAR; method not stated
T1 construct: also called hsuPAR; human suPAR
T1 sequence (Q03405 23-303 limits assumed): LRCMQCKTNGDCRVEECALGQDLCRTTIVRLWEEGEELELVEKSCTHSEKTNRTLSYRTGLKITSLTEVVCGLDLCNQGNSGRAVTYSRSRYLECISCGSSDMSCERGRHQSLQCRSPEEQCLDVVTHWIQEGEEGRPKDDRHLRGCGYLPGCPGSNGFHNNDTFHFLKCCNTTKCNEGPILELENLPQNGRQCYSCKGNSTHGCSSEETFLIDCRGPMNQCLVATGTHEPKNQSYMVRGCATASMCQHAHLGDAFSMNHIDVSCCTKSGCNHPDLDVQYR
experimental-readout: koff (s⁻¹)

| binder | experimental-readout | observed-measurement |
| --- | --- | --- |
| WAb0017 (antibody, V domains shown, constant regions not tied to this antibody; also called WAb CD0017) VH: QVQLVQSGAEVKKPGASVKVSCKASGYTFSAYYMHWVRQAPGQGLEWMGWIDHENGNTIYDQKFQGRVTMTRDTSTSTVYMELSSLRSEDTAVYYCARGYDVDWFVYWGQGTLVTVSS VL: DIQMTQSPSSLSASVGDRVTITCRARQSVSYMYWYQQKPGKAPKLLIYRTSNLASGVPSRFSGSGSGTDFTLTISSLQPEDFATYYCQQYHSYPPTFGGGTKVEIK | koff | 3.63e-07 |
| WAb0002 (antibody, V domains shown, constant regions not tied to this antibody; also called WAb CD0002) VH: QVQLVQSGAEVKKPGASVKVSCKASGYNIKDYYIHWVRQAPGQGLEWMGWISPSSGVTNYAQKFQGRVTMTRDTSTSTVYMELSSLRSEDTAVYYCARGYDVDWFVYWGQGTLVTVSS VL: DIQMTQSPSSLSASVGDRVTITCSARQSVSYMYWYQQKPGKAPKLLIYRTSNLASGVPSRFSGSGSGTDFTLTISSLQPEDFATYYCQQYHSYPPTFGGGTKVEIK | koff | 8.37e-05 |
| WAb0011 (antibody, V domains shown, constant regions not tied to this antibody; also called WAb CD0011) VH: QVQLVQSGAEVKKPGASVKVSCKASGYTFTGSYVHWVRQAPGQGLEWMGWIDHENGNTIYDQKFQGRVTMTRDTSTSTVYMELSSLRSEDTAVYYCARGYDVDWFVYWGQGTLVTVSS VL: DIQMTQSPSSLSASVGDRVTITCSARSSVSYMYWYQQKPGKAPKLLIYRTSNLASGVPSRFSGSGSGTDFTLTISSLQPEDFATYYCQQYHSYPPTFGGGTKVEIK | koff | 2.36e-07 |
| WAb0008 (antibody, V domains shown, WAb0006 VL + mouse kappa constant; also called WAb CD0008; WAb008) VH: QVQLVQSGAEVKKPGASVKVSCKASGYTFTSHYIQWVRQAPGQGLEWMGWIDHENGNTIYDQKFQGRVTMTRDTSTSTVYMELSSLRSEDTAVYYCARGTDVDWFVYWGQGTLVTVSS VL: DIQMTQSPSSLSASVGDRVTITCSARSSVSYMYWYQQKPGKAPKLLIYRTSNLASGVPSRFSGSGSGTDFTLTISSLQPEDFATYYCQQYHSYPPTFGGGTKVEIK | koff | 2.83e-07 |
| WAb0015 (antibody, V domains shown, constant regions not tied to this antibody; also called WAb CD0015) VH: QVQLVQSGAEVKKPGASVKVSCKASGYTFTNYYIHWVRQAPGQGLEWMGWISPDSGGTKYAQKFQGRVTMTRDTSTSTVYMELSSLRSEDTAVYYCARGYDVDWFVYWGQGTLVTVSS VL: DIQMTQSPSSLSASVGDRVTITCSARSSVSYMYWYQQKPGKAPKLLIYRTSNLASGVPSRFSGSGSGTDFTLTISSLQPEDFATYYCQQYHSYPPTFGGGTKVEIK | koff | 2.97e-07 |
| WAb0003 (antibody, V domains shown, constant regions not tied to this antibody; also called WAb CD0003) VH: QVQLVQSGAEVKKPGASVKVSCKASGFNIKDYYIHWVRQAPGQGLEWMGWIDPENGSTIYDQKFQGRVTMTRDTSTSTVYMELSSLRSEDTAVYYCARGYDIDWFVYWGQGTLVTVSS VL: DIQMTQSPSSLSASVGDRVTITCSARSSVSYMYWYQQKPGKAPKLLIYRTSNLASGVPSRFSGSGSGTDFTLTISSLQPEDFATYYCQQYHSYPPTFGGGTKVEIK | koff | 3.57e-07 |
